// provenance: paper PMC3626250

# Protocol description: Transport studies across Caco-2 monolayers (P app, efflux ratio)
# Type: in vitro ADME
# Reported conditions: human; Caco-2 Model, 500 μM compound, with or without 200 μM Borneol (see label); read-out: P app (apical to basolateral)
Measurement type: Papp A→B at 120 min, 500 μM (×10⁻⁶ cm/s)

1. CC(C)=CCC[C@](C)(O[C@@H]1O[C@H](CO)[C@@H](O)[C@H](O)[C@H]1O)[C@H]1CC[C@]2(C)[C@@H]1[C@H](O)C[C@@H]1[C@@]3(C)CC[C@H](O)C(C)(C)[C@@H]3[C@@H](O[C@@H]3O[C@H](CO)[C@@H](O)[C@H](O)[C@H]3O)C[C@]12C [GRg1, ginsenoside Rg1]
0.348
2. CC(C)=CCC[C@](C)(O[C@@H]1O[C@H](CO)[C@@H](O)[C@H](O)[C@H]1O)[C@H]1CC[C@]2(C)[C@@H]1[C@H](O)C[C@@H]1[C@@]3(C)CC[C@H](O)C(C)(C)[C@@H]3[C@@H](O[C@@H]3O[C@H](CO)[C@@H](O)[C@H](O)[C@H]3O[C@@H]3O[C@@H](C)[C@H](O)[C@@H](O)[C@H]3O)C[C@]12C [GRe, ginsenoside Re]
0.546
